System: Mycobacterium tuberculosis Erdman (autoluminescent)
Measurement Protocol: total FIC90 (Loewe) at 90% inhibition, three-drug combination (log2); higher = more antagonistic
Applied Conditions: in vitro model: acidic pH 5.7; time point: terminal (~4-5 doublings, model-specific)
The entries below come with measured total FIC90 values attached.
Observable: total FIC90

[[record]]
compound = "COc1nc2ccc(Br)cc2cc1[C@@H](c1ccccc1)[C@@](O)(CCN(C)C)c1cccc2ccccc12 [bedaquiline] + CC(C)/N=c1\\cc2n(-c3ccc(Cl)cc3)c3ccccc3nc-2cc1Nc1ccc(Cl)cc1 [clofazimine] + CC(=O)NC[C@H]1CN(c2ccc(N3CCOCC3)c(F)c2)C(=O)O1 [linezolid]"
measured_target = "Mycobacterium tuberculosis Erdman (autoluminescent)"
observable = "total FIC90"
meas_value = 0.299

[[record]]
compound = "CC(C)/N=c1\\cc2n(-c3ccc(Cl)cc3)c3ccccc3nc-2cc1Nc1ccc(Cl)cc1 [clofazimine] + COc1c(N2C[C@@H]3CCCN[C@@H]3C2)c(F)cc2c(=O)c(C(=O)O)cn(C3CC3)c12 [moxifloxacin] + NC(=O)c1cnccn1 [pyrazinamide]"
measured_target = "Mycobacterium tuberculosis Erdman (autoluminescent)"
observable = "total FIC90"
meas_value = -0.195

[[record]]
compound = "CC(C)/N=c1\\cc2n(-c3ccc(Cl)cc3)c3ccccc3nc-2cc1Nc1ccc(Cl)cc1 [clofazimine] + O=[N+]([O-])c1cn2c(n1)OC[C@@H](OCc1ccc(OC(F)(F)F)cc1)C2 [pretomanid] + NC(=O)c1cnccn1 [pyrazinamide]"
measured_target = "Mycobacterium tuberculosis Erdman (autoluminescent)"
observable = "total FIC90"
meas_value = -0.383

[[record]]
compound = "CC(C)/N=c1\\cc2n(-c3ccc(Cl)cc3)c3ccccc3nc-2cc1Nc1ccc(Cl)cc1 [clofazimine] + NNC(=O)c1ccncc1 [isoniazid] + COc1c(N2C[C@@H]3CCCN[C@@H]3C2)c(F)cc2c(=O)c(C(=O)O)cn(C3CC3)c12 [moxifloxacin]"
measured_target = "Mycobacterium tuberculosis Erdman (autoluminescent)"
observable = "total FIC90"
meas_value = 0.708

[[record]]
compound = "CC(C)/N=c1\\cc2n(-c3ccc(Cl)cc3)c3ccccc3nc-2cc1Nc1ccc(Cl)cc1 [clofazimine] + CC[C@@H](CO)NCCN[C@@H](CC)CO [ethambutol] + CO[C@H]1/C=C/O[C@@]2(C)Oc3c(C)c(O)c4c(O)c(c(/C=N/N5CCN(C6CCCC6)CC5)c(O)c4c3C2=O)NC(=O)/C(C)=C\\C=C\\[C@H](C)[C@H](O)[C@@H](C)[C@@H](O)[C@@H](C)[C@H](OC(C)=O)[C@@H]1C [rifapentine]"
measured_target = "Mycobacterium tuberculosis Erdman (autoluminescent)"
observable = "total FIC90"
meas_value = 0.125

[[record]]
compound = "CC(C)/N=c1\\cc2n(-c3ccc(Cl)cc3)c3ccccc3nc-2cc1Nc1ccc(Cl)cc1 [clofazimine] + COc1c(N2C[C@@H]3CCCN[C@@H]3C2)c(F)cc2c(=O)c(C(=O)O)cn(C3CC3)c12 [moxifloxacin] + O=[N+]([O-])c1cn2c(n1)OC[C@@H](OCc1ccc(OC(F)(F)F)cc1)C2 [pretomanid]"
measured_target = "Mycobacterium tuberculosis Erdman (autoluminescent)"
observable = "total FIC90"
meas_value = 0.287

[[record]]
compound = "CC[C@@H](CO)NCCN[C@@H](CC)CO [ethambutol] + CC(=O)NC[C@H]1CN(c2ccc(N3CCOCC3)c(F)c2)C(=O)O1 [linezolid] + O=[N+]([O-])c1cn2c(n1)OC[C@@H](OCc1ccc(OC(F)(F)F)cc1)C2 [pretomanid]"
measured_target = "Mycobacterium tuberculosis Erdman (autoluminescent)"
observable = "total FIC90"
meas_value = 1.01

